Listing: EB05 VT of selected compounds
experiment: FAERS disproportionality analysis; settings: FAERS Nov 1997 to March 31, 2015; ventricular tachycardia; EB05 > 2 = signal
Give only the figure.

Example compounds with recorded EB05 VT:
compound: COC(=O)C1=C(C)NC(C)=C(C(=O)OC)C1c1ccccc1[N+](=O)[O-] [NIFEDIPINE]
assay_result: 0.42
//
compound: CC[C@H]1OC(=O)[C@H](C)[C@@H](O[C@H]2C[C@@](C)(OC)[C@@H](O)[C@H](C)O2)[C@H](C)[C@@H](O[C@@H]2O[C@H](C)C[C@H](N(C)C)[C@H]2O)[C@](C)(OC)C[C@@H](C)C(=O)[C@H](C)[C@@H](O)[C@]1(C)O [CLARITHROMYCIN]
assay_result: 3.016
//
compound: COc1ccc([C@@H]2Sc3ccccc3N(CCN(C)C)C(=O)[C@@H]2OC(C)=O)cc1 [DILTIAZEM]
assay_result: 1.443
//
compound: O=C(NCC1CCCCN1)c1cc(OCC(F)(F)F)ccc1OCC(F)(F)F (stereo not shown) [FLECAINIDE]
assay_result: 20.567

// query For CC(C)COCC(CN(Cc1ccccc1)c1ccccc1)N1CCCC1 (stereo not shown) [BEPRIDIL] , what is its reported EB05 VT?
// result 38.276

// query For CN(C)CCCN1c2ccccc2Sc2ccc(Cl)cc21 [CHLORPROMAZINE] , what is its reported EB05 VT?
// result 1.78

// query For COc1cc(N)c(Cl)cc1C(=O)NC1CCN(CCCOc2ccc(F)cc2)CC1OC (stereo not shown) [CISAPRIDE] , what is its reported EB05 VT?
// result 21.801
